Hey, just so you know, these numbers are from a melting point compilation (Tetko et al.).

endpoint-label: melting point (°C)

- NC(=O)N1c2ccccc2CCc2ccccc21: 205

(I) Nc1c2c(nc3ccccc13)CCCC2O (configuration not stated)
(II) CCCC(C)CCC
Query: I'd appreciate it if you could identify which of I and II has the greater melting point. Indicate your choice by writing its label.
Reply: I
(I: 245 °C, II: -121 °C)

---

endpoint-label: melting point (°C)

Consider the following illustrative entries.
- c1ccc(N2CSc3nnc(-c4cccnc4)n3C2)cc1: 214
- O=C(O)C(O)c1cccc(F)c1 (centres undefined): 96
- Cc1cnc(O)c(Br)c1: 157

(I) C(#Cc1ccc(C#Cc2ccccc2)cc1)c1ccccc1
(II) O=[N+]([O-])c1cccc(C=Cc2ccccc2)c1
Query: Field: lower recorded melting point (choose I or II ) Indicate your choice by writing its label.
Reply: II
(II: 102 °C, I: 177 °C)
